Assay: AUC (infinity) in fasted Crlj:CD1(ICR) mouse at 2.8 mg/kg, po
Type: ADME, organism-based
Design: time infinity, dose 2.8 mg/kg, route oral
Conditions: plasma
Measurement name: AUC(0-inf) (ng·h/mL)
Your answer is read as ng·h/mL, so omit the unit and give the number.

Please report AUC(0-inf) for the following molecule: CCc1ccc(Cc2ccc3c(c2)[C@]2(OC3)O[C@H](CO)[C@@H](O)[C@H](O)[C@H]2O)cc1 [TOFOGLIFLOZIN ANHYDROUS]
3980

----------
Assay: AUC (infinity) in fasted Crlj:CD1(ICR) mouse at 2.9 mg/kg, iv
Type: ADME, organism-based
Set-up: time infinity, dose 2.9 mg/kg, route intravenous
Conditions: plasma
Measurement name: AUC(0-inf) (ng·h/mL)
Give your result in ng·h/mL as a bare value.

Identify measured AUC(0-inf) associated with CCc1ccc(Cc2ccc3c(c2)[C@]2(OC3)O[C@H](CO)[C@@H](O)[C@H](O)[C@H]2O)cc1 [TOFOGLIFLOZIN ANHYDROUS]
4750

----------
Assay: Oral bioavailability in fasted Crlj:CD1(ICR) mouse at 2.6 mg/kg
Assay type: ADME, organism-based
Conditions: in vivo
Measurement name: bioavailability (%)
Answer in %, number only, no unit symbol.

For the compound CC(C)c1ccc(Cc2ccc3c(c2)[C@]2(OC3)O[C@H](CO)[C@@H](O)[C@H](O)[C@H]2O)cc1 , give its measured bioavailability value.
46

----------
Experiment: Oral bioavailability in fasted Crlj:CD1(ICR) mouse at 2.8 mg/kg
Assay type: ADME, organism-based
Details: in vivo
Measurement name: bioavailability
Report as: number unit

Tell me its bioavailability given CCc1ccc(Cc2ccc3c(c2)[C@]2(OC3)O[C@H](CO)[C@@H](O)[C@H](O)[C@H]2O)cc1 [TOFOGLIFLOZIN ANHYDROUS] as the entry.
75%

----------
Assay: Volume of distribution at steady state in fasted Crlj:CD1(ICR) mouse at 3.1 mg/kg, iv
Type: ADME, organism-based
Design: dose 3.1 mg/kg, route intravenous
Conditions: in vivo, read-out: Vdss
Measurement name: Vd (L/kg)
Report as a plain number; the unit L/kg is understood.

Please give measured Vd of the following entry: CC(C)c1ccc(Cc2ccc3c(c2)[C@]2(OC3)O[C@H](CO)[C@@H](O)[C@H](O)[C@H]2O)cc1
2.05

----------
Test: AUC (infinity) in fasted Crlj:CD1(ICR) mouse at 3.1 mg/kg, iv
Type: ADME, organism-based
Parameters: dose 3.1 mg/kg, route intravenous, time infinity
Conditions: plasma
Measurement name: AUC(0-inf) (ng·h/mL)
Response body: numeric value in ng·h/mL, unit text excluded.

Please indicate AUC(0-inf) recorded for CC(C)c1ccc(Cc2ccc3c(c2)[C@]2(OC3)O[C@H](CO)[C@@H](O)[C@H](O)[C@H]2O)cc1
4210

----------
Assay: Oral bioavailability in fasted cynomolgus monkey at 1.7 mg/kg
Format: ADME, organism-based, Macaca fascicularis
Conditions: in vivo
Measurement name: bioavailability (%)
Hi! Could you send only the number? It should be in %, unit omitted.

Entry CCc1ccc(Cc2ccc3c(c2)[C@]2(OC3)O[C@H](CO)[C@@H](O)[C@H](O)[C@H]2O)cc1 [TOFOGLIFLOZIN ANHYDROUS] needs its bioavailability filled in; supply it.
85
